EC50 listing for selected compounds.
- target_or_system: 5-HT2A receptor (Homo sapiens, UniProt P28223)
- Sequence (P28223 whole entry): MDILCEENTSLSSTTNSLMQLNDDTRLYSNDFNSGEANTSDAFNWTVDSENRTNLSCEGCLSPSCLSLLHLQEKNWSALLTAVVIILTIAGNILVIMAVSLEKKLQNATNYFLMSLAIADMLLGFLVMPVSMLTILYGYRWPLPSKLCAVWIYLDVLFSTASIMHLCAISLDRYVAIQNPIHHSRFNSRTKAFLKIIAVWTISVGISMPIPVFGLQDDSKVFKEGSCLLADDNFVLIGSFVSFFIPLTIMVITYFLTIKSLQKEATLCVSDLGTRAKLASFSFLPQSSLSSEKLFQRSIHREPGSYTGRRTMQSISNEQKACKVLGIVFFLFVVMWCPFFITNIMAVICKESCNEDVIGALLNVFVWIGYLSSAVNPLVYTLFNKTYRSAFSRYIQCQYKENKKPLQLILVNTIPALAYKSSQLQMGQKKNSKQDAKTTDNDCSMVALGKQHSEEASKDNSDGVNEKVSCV
- assay_remarks: 5-HT2AR calcium flux activation assay
- Type: cell-based
- Set-up: expressed in transfected cells; host or cells: HEK293
- study_conditions: HEK293 cells stably expressing human 5-HT2A receptor, FLIPR, Fluo-4; read-out: EC50
measured_metric: EC50 (nM)

| compound | unit_annotation | cmp | value |
| --- | --- | --- | --- |
| Oc1cccc2[nH]cc(C3CCN(CCCn4nccn4)C3)c12 (stereo not shown) | nM | = | 9.95 |
| Cc1cnn(CCCN2CCC(c3c[nH]c4ccccc34)C2)n1 (stereo not shown) | nM | = | 27.7 |
| c1ccc2c(C3CCN(CCCn4nccn4)CC3)c[nH]c2c1 [reference compound] | nM | > | 100000 |
| Oc1cccc2[nH]cc(C3CCN(CCc4coc5ccccc45)C3)c12 (stereo not shown) | nM | = | 43.3 |
